Target: N-acylethanolamine-hydrolyzing acid amidase (Homo sapiens)
Sequence (Q02083 whole entry): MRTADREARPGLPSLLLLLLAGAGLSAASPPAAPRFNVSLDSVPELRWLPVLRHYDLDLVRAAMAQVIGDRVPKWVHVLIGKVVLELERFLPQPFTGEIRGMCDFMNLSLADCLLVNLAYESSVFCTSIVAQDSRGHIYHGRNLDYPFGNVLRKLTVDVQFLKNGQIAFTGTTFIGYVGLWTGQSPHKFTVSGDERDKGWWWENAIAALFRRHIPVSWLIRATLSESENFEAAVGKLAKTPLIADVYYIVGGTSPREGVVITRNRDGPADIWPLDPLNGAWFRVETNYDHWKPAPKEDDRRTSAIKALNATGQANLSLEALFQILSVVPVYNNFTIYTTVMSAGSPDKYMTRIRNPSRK
Assay: Inhibition of NAAA

{"columns": ["compound", "unit.text", "IC50"],
 "data": [
  ["CCCCCCCCCCCCCCCCOC(=O)CC [HEXADECYLPROPIONATE]", "µM", 54],
  ["CCCCCCCCCCCCCCCNC(=O)c1ccccc1", "µM", 8.3],
  ["CCCCCCCCCCCCCCCNC(=O)CCO", "µM", 32]
]}

----------
Target: N-acylethanolamine-hydrolyzing acid amidase (Homo sapiens)
Sequence (whole entry): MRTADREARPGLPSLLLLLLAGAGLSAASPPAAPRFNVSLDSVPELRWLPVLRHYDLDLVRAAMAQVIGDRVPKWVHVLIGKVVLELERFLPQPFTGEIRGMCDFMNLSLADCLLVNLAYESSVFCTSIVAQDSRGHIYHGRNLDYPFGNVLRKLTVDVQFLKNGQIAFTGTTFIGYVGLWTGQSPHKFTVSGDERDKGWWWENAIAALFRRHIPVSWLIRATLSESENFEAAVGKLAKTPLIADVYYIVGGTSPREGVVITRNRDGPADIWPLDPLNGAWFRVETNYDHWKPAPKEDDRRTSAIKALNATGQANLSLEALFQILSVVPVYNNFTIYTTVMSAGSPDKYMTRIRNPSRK
Assay: Inhibition of human recombinant NAAA expressed in human HEK293 cells assessed as conversion of [1,2-14C]palmitoylethanolamine to [1,2-14C]ethanolamine at 50 uM by liquid scintillation counting
Format: cell-based
Activity calls are given as the source filed them. No cut-off for these calls is given here.

{"columns": ["entry.smiles", "inhibition"],
 "data": [
  ["CCCCCCCCCCCCCCCCOC(=O)C1CCCC1", "17%"],
  ["CCCCCCCCCCCCCCCCC(=O)OC1CCC1", "inactive"],
  ["CCCCCCCCCCCCCCCC(=O)OC1CCCCC1", "18%"],
  ["CCCCCCCCCCCCCCCC(=O)Oc1ccc(OC)cc1", "inactive"],
  ["CCCCCCCCCCCCCCCC(=O)NN1CCN(c2ccc(F)cc2)CC1", "inactive"],
  ["CCCCCCCCCCCCCCCC(=O)NN1CCN(c2ccc(Cl)cc2)CC1", "inactive"],
  ["CCCCCCCCCCCCCCCC(=O)Nc1ccc(OC)cc1", "inactive"],
  ["CCCCCCCCCCCCCCCCC(=O)OC1CCCC1", "inactive"],
  ["CCCCCCCCCCCCCCCC(=O)NC1CCN(Cc2ccccc2)CC1", "inactive"],
  ["CCCCCCCCCCCCCCCCOC(=O)c1ccc(OC)cc1", "inactive"],
  ["CCCCCCCCCCCCCCC(=O)OC1CCCCC1", "28%"],
  ["CCCCCCCCCCCCCCCC(=O)NCCc1cc(OC)cc(OC)c1", "inactive"],
  ["CCCCCCCCCCCCCCCCOC(=O)NC1CCCCC1", "inactive"],
  ["CCCCCCCCCCCCCCCCC(=O)OC1CCCCC1", "inactive"],
  ["CCCCCCCCCCCCCCCCNC(=O)C1CCCC1", "8%"],
  ["CCCCCCCCCCCCCCCCNC(=O)c1ccc([N+](=O)[O-])cc1", "4%"],
  ["CCCCCCCCCCCCCCC(=O)OC1CCC1", "29%"]
]}
